Entries and their measured switch fluorescence ratio follow.
System: ATP;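 note: ATP exposure 15 min at 22 °C before imaging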
Assay: switch fluorescence ratio, 500 uM ATP over buffer (Cy3 cluster intensity, sum of 5 cycles each) (fold (ratio)); higher = stronger signal-on switching upon ATP binding; sequences stand for … in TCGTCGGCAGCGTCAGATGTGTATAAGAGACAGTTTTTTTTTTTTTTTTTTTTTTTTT…TC
Conditions: aptamer strand: ATP DNA aptamer (quencher-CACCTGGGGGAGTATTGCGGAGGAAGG + anchor), 100 nM annealed; ATP concentration: 500 uM
Respond with the number and no other words.

Consider the worked cases shown below.
TGGGTTTTGC 0.994
GTGAGTAATT 1.02
AGGGAAAAAT 1.06
ATTCTGCTGG 1.01
TTGGATTAGG 1.01
AAGGGTTAGG 1.03
TGGGTATGGG 1.01
GGGATATCTG 0.988

Record GTTGCTGTTT . Reported switch fluorescence ratio: 1

Record GTGTTTGTCA . Reported switch fluorescence ratio: 0.981

Record ATATGTGGGT . Reported switch fluorescence ratio: 0.989

Record ATTGCGTGGT . Reported switch fluorescence ratio: 0.986

Record AGGCTTGCGC . Reported switch fluorescence ratio: 1.01

Record TTTAGAAATC . Reported switch fluorescence ratio: 1.08

Record GCGGGCGTTG . Reported switch fluorescence ratio: 0.996

Record GACTGGCTT . Reported switch fluorescence ratio: 0.987

Record AAGTTGGGAT . Reported switch fluorescence ratio: 0.972

Record TCATGACTTT . Reported switch fluorescence ratio: 1.01

Record GTAATATTTC . Reported switch fluorescence ratio: 0.992

Record AATTGTGCCT . Reported switch fluorescence ratio: 1.08

Record GTTCTATGC . Reported switch fluorescence ratio: 1

Record GCTTTCTCGT . Reported switch fluorescence ratio: 1.03

Record TTCAGCGGGT . Reported switch fluorescence ratio: 0.983

Record GTGGTAGCAC . Reported switch fluorescence ratio: 1.01

Record TGATCGAAGG . Reported switch fluorescence ratio: 0.991

Every entry's value here was drawn from the supplement of paper PMC10126150.
